system: UACC-257; assay: CellTiter-Glo toxicity, 4 days (Example 9); assay type: cell-based; details: Homo sapiens, UACC-257, 96 h, 4 days of drug incubation; Table 7A
Please respond with reported IC50 for every item in the list.
Give bare numbers, in nM.

Worked examples follow.
GET IC50 where system = UACC-257 and item = C=C1C[C@H]2C(O)N(C(=O)OCCSSCC)c3cc(OC)c(OC)cc3C(=O)N2C1 (some centres unmarked) [PBD monomer disulfide prodrug 1] 276

GET IC50 where system = UACC-257 and item = C=C1C[C@H]2C(O)N(C(=O)OCC3(SSCC)CCCC3)c3cc(OC)c(OC)cc3C(=O)N2C1 (some centres unmarked) [PBD monomer disulfide prodrug 5] 892

GET IC50 where system = UACC-257 and item = C=C1C[C@H]2C(O)N(C(=O)OCC3(SSCCO)CCOC3)c3cc(OC)c(OC)cc3C(=O)N2C1 (some centres unmarked) [PBD monomer disulfide prodrug 22] 80.6

GET IC50 where system = UACC-257 and item = C=C1C[C@H]2C(O)N(C(=O)OCCSSCCC(=O)O)c3cc(OC)c(OC)cc3C(=O)N2C1 (some centres unmarked) [PBD monomer disulfide prodrug 27] 939

GET IC50 where system = UACC-257 and item = C=C1C[C@H]2C(O)N(C(=O)OCC3(SSCC)CCC3)c3cc(OCCCCCOc4cc5c(cc4OC)C(=O)N4CC(=C)C[C@H]4C(O)N5C(=O)OCC4(SSCC)CCC4)c(OC)cc3C(=O)N2C1 (some centres unmarked) [PBD dimer disulfide prodrug 4] 7.8

GET IC50 where system = UACC-257 and item = C=C1C[C@H]2C(O)N(C(=O)OC[C@@H](C)SSCC)c3cc(OC)c(OC)cc3C(=O)N2C1 (some centres unmarked) [PBD monomer disulfide prodrug 12] 156

GET IC50 where system = UACC-257 and item = C=C1C[C@H]2C(O)N(C(=O)OCCSSC(C)C)c3cc(OC)c(OC)cc3C(=O)N2C1 (some centres unmarked) [PBD monomer disulfide prodrug 2] 1860

GET IC50 where system = UACC-257 and item = C=C1C[C@H]2C(O)N(C(=O)OCCSSC(C)(C)C)c3cc(OC)c(OC)cc3C(=O)N2C1 (some centres unmarked) [PBD monomer disulfide prodrug 16] 19500

GET IC50 where system = UACC-257 and item = C=C1C[C@H]2C(O)N(C(=O)OCC3(SSCC)CCOC3)c3cc(OC)c(OC)cc3C(=O)N2C1 (single isomer, unassigned) [PBD monomer disulfide prodrug 11] 331

***
GET IC50 where system = UACC-257 and item = C=C1C[C@H]2C=Nc3cc(OCCCCCOc4cc5c(cc4OC)C(=O)N4CC(=C)C[C@H]4C(O)N5C(=O)OCC4(SSCC)CCC4)c(OC)cc3C(=O)N2C1 (some centres unmarked) [PBD dimer disulfide prodrug 1] 2.2

###

Please respond with reported % Remaining at 24 h by GSH for every item in the list.
experiment: Disulfide cleavage by glutathione (GSH), LC/MS; type: physicochemical; details: 15 uM compound, 4 mM GSH, pH 7.0, 37 C
I'd appreciate it if you included the unit after the number.

For the molecule C=C1C[C@H]2C(O)N(C(=O)OCC3(SSC(C)C)CC3)c3cc(OC)c(OC)cc3C(=O)N2C1 (stereo partly drawn) [PBD monomer disulfide prodrug 7] , give its reported % Remaining at 24 h by GSH. 89.7%

Could I get % Remaining at 24 h by GSH for every one of these entries?
1. C=C1C[C@H]2C(O)N(C(=O)OCC(C)(C)SSC(C)C)c3cc(OC)c(OC)cc3C(=O)N2C1 (stereo partly drawn) [PBD monomer disulfide prodrug 10]
2. C=C1C[C@H]2C(O)N(C(=O)OCc3ccc(SSC(C)C)cc3)c3cc(OC)c(OC)cc3C(=O)N2C1 (stereo partly drawn) [PBD monomer disulfide prodrug 19]
3. C=C1C[C@H]2C(O)N(C(=O)OCc3ccccc3)c3cc(OC)c(OC)cc3C(=O)N2C1 (stereo partly drawn) [PBD monomer control 2, reference compound]
4. C=C1C[C@H]2C(O)N(C(=O)OCCSSC3CCCC3)c3cc(OC)c(OC)cc3C(=O)N2C1 (stereo partly drawn) [PBD monomer disulfide prodrug 28]

["88.5%", "0%", "100%", "0%"]

###

test system: double strand DNA Oligos 1 and 2; test: DNA oligo binding, LC/MS/UV; conditions: 100 uM compound, 100 uM DNA, 1 hour, 37 C
Please respond with reported % DNA oligo remaining for every item in the list.
Numbers only, in %.

For the compound C=C1C[C@H]2CNc3cc(OCCCCCOc4cc5c(cc4OC)C(=O)N4CC(=C)C[C@H]4CN5)c(OC)cc3C(=O)N2C1 [PBD dimer control 2] , give its reported % DNA oligo remaining. 100

Consider the record given below.
For the compound C=C1C[C@H]2C=Nc3cc(OC)c(OC)cc3C(=O)N2C1 [PBD monomer control 1, reference compound] , give its reported % DNA oligo remaining. 35

###

Please respond with reported % Remaining at 24 h by Cys for every item in the list.
experiment: Disulfide cleavage by cysteine, LC/MS; assay type: physicochemical; conditions: 15 uM compound, 0.2 mM cysteine, pH 7.0, 37 C
Numbers only, in %.

Worked examples follow.
For the compound C=C1C[C@H]2C(O)N(C(=O)OCC(C)(C)SSC(C)(C)C)c3cc(OC)c(OC)cc3C(=O)N2C1 (stereo partly drawn) [PBD monomer disulfide prodrug 4] , give its reported % Remaining at 24 h by Cys. 99.9

For the compound C=C1C[C@H]2C(O)N(C(=O)OCc3ccc(SSC(C)C)cc3)c3cc(OC)c(OC)cc3C(=O)N2C1 (stereo partly drawn) [PBD monomer disulfide prodrug 19] , give its reported % Remaining at 24 h by Cys. 4.4

For the compound C=C1C[C@H]2C(O)N(C(=O)OCCSSC3CCCC3)c3cc(OC)c(OC)cc3C(=O)N2C1 (stereo partly drawn) [PBD monomer disulfide prodrug 28] , give its reported % Remaining at 24 h by Cys. 62.2

Could I get % Remaining at 24 h by Cys for every one of these entries?
1. C=C1C[C@H]2C(O)N(C(=O)OCC3(SSC(C)C)CC3)c3cc(OC)c(OC)cc3C(=O)N2C1 (stereo partly drawn) [PBD monomer disulfide prodrug 7]
2. C=C1C[C@H]2C(O)N(C(=O)OC[C@@H](C)SSC3COC3)c3cc(OC)c(OC)cc3C(=O)N2C1 (stereo partly drawn) [PBD monomer disulfide prodrug 26]

1. 96.1
2. 29.1

Could I get % Remaining at 24 h by Cys for every one of these entries?
1. C=C1C[C@H]2C(O)N(C(=O)OCc3ccccc3)c3cc(OC)c(OC)cc3C(=O)N2C1 (stereo partly drawn) [PBD monomer control 2, reference compound]
2. C=C1C[C@H]2C(O)N(C(=O)OCCSSCC)c3cc(OC)c(OC)cc3C(=O)N2C1 (stereo partly drawn) [PBD monomer disulfide prodrug 1]
3. C=C1C[C@H]2C(O)N(C(=O)OCC(C)(C)SSC(C)C)c3cc(OC)c(OC)cc3C(=O)N2C1 (stereo partly drawn) [PBD monomer disulfide prodrug 10]
4. C=C1C[C@H]2C(O)N(C(=O)OCC3(SSCC)CCC3)c3cc(OC)c(OC)cc3C(=O)N2C1 (stereo partly drawn) [PBD monomer disulfide prodrug 3]
5. C=C1C[C@H]2C(O)N(C(=O)OCCSSCCO)c3cc(OC)c(OC)cc3C(=O)N2C1 (stereo partly drawn) [PBD monomer disulfide prodrug 29]

1. 100
2. 17.9
3. 99.4
4. 73.5
5. 0

Could I get % Remaining at 24 h by Cys for every one of these entries?
1. C=C1C[C@H]2C(O)N(C(=O)OCc3ccc(SSC(C)(C)C)cc3)c3cc(OC)c(OC)cc3C(=O)N2C1 (stereo partly drawn) [PBD monomer disulfide prodrug 6]
2. C=C1C[C@H]2C(O)N(C(=O)OCC3(SSCC)CCCC3)c3cc(OC)c(OC)cc3C(=O)N2C1 (stereo partly drawn) [PBD monomer disulfide prodrug 5]
3. C=C1C[C@H]2C(O)N(C(=O)OCCSSC(C)C)c3cc(OC)c(OC)cc3C(=O)N2C1 (stereo partly drawn) [PBD monomer disulfide prodrug 2]
4. C=C1C[C@H]2C(O)N(C(=O)OCCSSC(C)(C)C)c3cc(OC)c(OC)cc3C(=O)N2C1 (stereo partly drawn) [PBD monomer disulfide prodrug 16]
5. C=C1C[C@H]2C(O)N(C(=O)OCC(CN(C)C)SSC(C)C)c3cc(OC)c(OC)cc3C(=O)N2C1 (stereo partly drawn) [PBD monomer disulfide prodrug 20]

85.4
90.9
77.6
98.6
0

###

experiment: Disulfide cleavage by glutathione (GSH), LC/MS; type: physicochemical; conditions: 15 uM compound, 4 mM GSH, pH 7.0, 37 C
QUANTITY KIND: % Remaining at 24 h by GSH (%)
Answers are plain numbers, in %.

Worked examples follow.
For the compound C=C1C[C@H]2C(O)N(C(=O)OCC3(SSCC)CCC3)c3cc(OC)c(OC)cc3C(=O)N2C1 (stereo partly drawn) [PBD monomer disulfide prodrug 3] , give its reported % Remaining at 24 h by GSH. 2.90

For the compound C=C1C[C@H]2C(O)N(C(=O)OCCSSCCC(=O)O)c3cc(OC)c(OC)cc3C(=O)N2C1 (stereo partly drawn) [PBD monomer disulfide prodrug 27] , give its reported % Remaining at 24 h by GSH. 0

Consider the record given below.
For the compound C=C1C[C@H]2C(O)N(C(=O)OCC3(SSCC)CCOC3)c3cc(OC)c(OC)cc3C(=O)N2C1 (single isomer, unassigned) [PBD monomer disulfide prodrug 30] , give its reported % Remaining at 24 h by GSH. 0
